- STUDY_TARGET: T1, Myo5, Q04439
- T1 sequence (Q04439 1072-1160, looked up): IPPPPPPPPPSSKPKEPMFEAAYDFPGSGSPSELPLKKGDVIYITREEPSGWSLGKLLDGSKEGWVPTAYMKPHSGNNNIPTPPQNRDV
- PROTOCOL: SPOT array
- PROTOCOL_CONDITIONS: median of control spots 471
QUANTITY: SPOT intensity
# respond with the number and nothing more

Recorded results for 6 binders are shown here.
> print(dat)
            binder        quantity  endpoint.value
1  NNFYRPLLRSVLVLL  SPOT intensity               0
2  PSTMDFPKLPSFQNS  SPOT intensity              77
3  AGKRRLPLVRFKASD  SPOT intensity               2
4  VQQDSLPKLPFRSWG  SPOT intensity               0
5  GKLKHIPRRPYEIER  SPOT intensity               0
6  NRLRKRLNLPSEISI  SPOT intensity               2

Entry GKKVRPLLVLLLSRA : reported SPOT intensity = ?
1

Reported SPOT intensity, binder RMVRRRPLRVQFSAR : ____
10

State the recorded SPOT intensity for this entry: RSLRKRPTSPSISGS
2

What SPOT intensity value was documented for this binder, QQNRPLPQLPNRNNR ?
0

For VPVAPPPPPASLGQS , what is its reported SPOT intensity?
1

Look up SPOT intensity for this binder: AERNYAPRLPRRETS
0

Give the measured SPOT intensity of KDKKTKPTPPPKPSH .
0

Find the recorded SPOT intensity belonging to RLPAPPPPPRRGPAP and report it.
0

So what does the record say about SPOT intensity for KWVRRPKLMTPLTFS ?
6

Looking for the measured SPOT intensity of HHKRRPTTIDVPGLT , can you help?
4

Give the measured SPOT intensity of QNTPPLPPKPKSPHL .
0

Reported SPOT intensity for KRNRLKILLPFLEQS : what is it?
0

For the binder NTMKKRPAPPSLPSL , what SPOT intensity is on record?
115

Which measured SPOT intensity value corresponds to IRMPSNPALPKKLLN ?
81

Given the entry DRIRMFIRFPKFLLE , report its measured SPOT intensity.
2

Fill in the blank: the reported SPOT intensity of FYHRPAPKPPVTKKV is ____.
12

Param item = AIPPPVPNRPGGTTN ; retrieve measured SPOT intensity.
0

Which SPOT intensity value belongs to KLSRGRYGLPLSSRP ?
0
